target: Tumour suppressor p53/oncoprotein Mdm2 (Homo sapiens, UniProt Q00987); assay: Competitive inhibition of MDM2/P53 interaction after 1 hr by fluorescence polarization assay; type: protein assay; details: read-out: IC50
Sequence (P04637 whole entry): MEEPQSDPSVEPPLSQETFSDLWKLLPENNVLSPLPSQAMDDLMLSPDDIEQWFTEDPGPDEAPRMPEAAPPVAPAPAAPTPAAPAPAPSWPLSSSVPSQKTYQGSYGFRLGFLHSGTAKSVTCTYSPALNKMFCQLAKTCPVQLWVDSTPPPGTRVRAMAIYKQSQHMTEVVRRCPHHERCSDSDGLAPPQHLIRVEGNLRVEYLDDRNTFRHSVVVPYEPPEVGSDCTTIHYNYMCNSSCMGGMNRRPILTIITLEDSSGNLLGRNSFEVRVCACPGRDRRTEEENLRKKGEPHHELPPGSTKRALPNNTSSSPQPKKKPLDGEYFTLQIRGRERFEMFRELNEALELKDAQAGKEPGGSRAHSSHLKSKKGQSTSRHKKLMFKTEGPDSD
Sequence (Q00987 whole entry): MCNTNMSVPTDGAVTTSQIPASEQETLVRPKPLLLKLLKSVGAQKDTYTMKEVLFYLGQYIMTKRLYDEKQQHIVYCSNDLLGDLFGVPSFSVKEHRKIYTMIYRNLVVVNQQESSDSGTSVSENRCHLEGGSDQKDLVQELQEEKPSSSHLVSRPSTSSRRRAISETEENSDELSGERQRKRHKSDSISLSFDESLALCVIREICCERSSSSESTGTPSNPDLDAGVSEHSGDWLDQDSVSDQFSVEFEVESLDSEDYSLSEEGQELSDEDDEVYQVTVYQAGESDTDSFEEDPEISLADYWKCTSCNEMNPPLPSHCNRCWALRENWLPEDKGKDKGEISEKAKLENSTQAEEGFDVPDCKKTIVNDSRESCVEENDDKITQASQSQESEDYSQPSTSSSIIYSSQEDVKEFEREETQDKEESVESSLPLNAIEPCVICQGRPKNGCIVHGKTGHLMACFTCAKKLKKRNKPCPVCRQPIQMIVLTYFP
measurement.type: IC50 (µM)
Response body: numeric value in µM, unit text excluded.

- COc1ccc(C2=N[C@H](c3ccc(Cl)cc3)[C@H](c3ccc(Cl)cc3)N2C(=O)NCC(=O)O)c(OC(C)C)c1: 6.18
- CCN(CC)C(=O)CCCNC(=O)N1C(c2ccc(OC)cc2OC(C)C)=N[C@H](c2ccc(Cl)cc2)[C@@H]1c1ccc(Cl)cc1: 4.18
- COc1ccc(C2=N[C@H](c3ccc(Cl)cc3)[C@H](c3ccc(Cl)cc3)N2C(=O)NCC(=O)N2CCN(C(C)=O)CC2)c(OC(C)C)c1: 5.43

Hello, please tell me recorded IC50 for this one: CCOC(=O)CNC(=O)N1C(c2ccc(OC)cc2OC(C)C)=N[C@H](c2ccc(Cl)cc2)[C@@H]1c1ccc(Cl)cc1
4.29
